- Test system: K4 kissing-loop RNA reporter;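 also: bound reporter read as fluorescence of individual clusters on recovered sequencing chips by microscopy, with normalized cluster intensities fitted with a binding model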
- method: apparent KD of K4 kissing-loop reporter; higher = weaker reporter binding
- cond: Eterna round: R107; input ligand: theophylline 20 uM
// label = t if apparent KD of K4 kissing-loop reporter is not less than 200 nM, otherwise f

monomer sequence | class assignment
ACGUCCGGGUUAAUCGUGGGCGUGGUGGAUACCAGUUCUUCAAUGAACCCUUGGCAGCCACGUGAGUGAUGUUCACGUGCGAUGA [#15 K4 Theophylline A Exclusion] | f
ACGGGUCGACGAAGGAGCGCCGUGCAGUGAUGUUGCAGUUAGAUCCAGUGAUGUUUGGGCCGGCAGGUAGGUCGCGUCGACUCAU [Exclusion Arginine B GF 21] | t
UAAAAUAAAUAAUAGAGAUAAUUACUCGAAGGAGCGACGAAUUCGUCAGGUAGGUCGCGAGUGAUGUUCGCAAAUAUUAUCUCAU [AK3 Exc Arginine A] | t
GCCUACGAUGCAGGAUAUAGCUCGCGAGUGAUGUUCGCAGCUGUAUGGUAGUAAGCUUCCACGUGUCUAGAAGGGCAUCGUAGGC [#01 K4 FMN B Exclusion] | f
GCUAUGGUAGGAAGGAGCGCUUAUUUAUUUUUAAGAGUGAUGUUCGUUAGUAGAUAUUUAAAGCAGGUAGGUCGCCUACUAUAGC [Arginine B K4 14] | f

Q) Reported apparent KD of K4 kissing-loop reporter at or above 200 nM? UUGCGUCUCUGAGGAUAUCAGAACAGAGUGAUGUUCUGUCAACGCCCAGUGAUGUUGGAUGCGAUCUGAGAAGGCAGUGGGCGCG [Same State FMN B GF 10]
A) f

====

- Test system: MS2 coat protein
- method: apparent KD of MS2 coat protein; designed switch direction (-1 OFF switch, 1 ON switch): -1; higher = weaker reporter binding
- cond: input ligand: FMN 200 uM
// label = YES if apparent KD of MS2 coat protein is not less than 100 nM, otherwise NO

Q) Quick check: does CGGUCGUCCUCAGGAUAUACAUGAGGAUCACCCAUGUUUCUAGGAUCGGUCGUCCGGUCGGUGGUGUAGAAGGGAGGGUGGCUG [random 2, A 18%] (Eterna round: R96, puzzle: Exclusion NG 2) have apparent KD of MS2 coat protein greater than or equal to 100 nM?
A) YES

Q) Quick check: does AUCCGUUGUAUAGGAUAUAAGUGUAAACUGUACUUAGAAGGAUACAUGAGGAUCACCCAUGUUGUAAUAGAUGAGCAUAGAGCA [Eternabot solution 6] (Eterna round: R96, puzzle: Exclusion NG 1) have apparent KD of MS2 coat protein greater than or equal to 100 nM?
A) NO

Q) Please indicate if the recorded apparent KD of MS2 coat protein for AUAAAGAACUCAGGAUAUUAGAGAAACGGACAUGAGGAUCACCCAUGUGCGCCUGAUGCCGAGAAUAAGAAGGGAGAAUAGAAA [Rearbi] (Eterna round: R96, puzzle: Exclusion NG 2) meets or exceeds 100 nM.
A) YES

Q) Has AAAUUGUGAGGAUAUUCGAUGAACACGGAGACGUGUUUAUCGGAGAAGGCACAUGAGGAUCACCCAUGUUCCUU [Mat - Exclusion 4 - JL Mod - D24] (Eterna round: R97, puzzle: Exclusion 4) a recorded apparent KD of MS2 coat protein greater than or equal to 100 nM?
A) NO

Q) Dear colleague, could you confirm whether AGGGAACCCAAGGAUAUUGAGAGUUAAGCCACUUAAGAAGGUGGUACAUGAGGAUCACCCAUGUCCCUUGCAGA [Eternabot (L1) Solution 6] (Eterna round: R97, puzzle: Exclusion 6) has apparent KD of MS2 coat protein at or above 100 nM?
A) NO

All values here come from the supplement of paper PMC9170038.
